Data origin, for the record: patent US20220177549A1

Listed below: Fold increase over wild-type KD values for each entry.
molecular target: porcine FcRn complex (porcine) (UniProt Q07717); experiment: SPR (Biacore 8K+), pH 5.9, 25 C; FcRn captured by anti-His, IgG as analyte; 1:1 kinetic model
Sequence (main, as listed by the source, chain 1 of 2): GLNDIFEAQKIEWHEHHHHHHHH
Sequence (Q07717 other isoform, or with tags, fused parts or gaps, chain 2 of 2): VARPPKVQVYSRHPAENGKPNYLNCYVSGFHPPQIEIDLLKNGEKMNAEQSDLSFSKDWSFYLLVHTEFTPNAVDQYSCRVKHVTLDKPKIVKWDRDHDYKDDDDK
Number only, in fold; omit the unit.

binder="Porcine M252Y (antibody, part only; not given: variable domains and light chain, IgG1a, not shown: another chain or arm of the molecule) Fc: GCEVAGPSVFIFPPKPKDTLYISQTPEVTCVVVDVSKEHAEVQFSWYVDGVEVHTAETRPKEEQFNSTYRVVSVLPIQHQDWLKGKEFKCKVNNVDLPAPITRTISKAIGQSREPQVYTLPPPAEELSRSKVTVTCLVIGFYPPDIHVEWKSNGQPEPEGNYRTTPPQQDVDGTFFLYSKLAVDKARWDHGETFECAVMHEALHNHYTQKSISKTQGK" unit_abbreviation=fold quantitative_result=3.3

Switching to the query record.
**Q:** Can you share its Fold increase over wild-type KD? I mean this binder: Porcine T286E (antibody, part only; not given: variable domains and light chain, IgG1a, not shown: another chain or arm of the molecule) Fc: GCEVAGPSVFIFPPKPKDTLMISQTPEVTCVVVDVSKEHAEVQFSWYVDGVEVHEAETRPKEEQFNSTYRVVSVLPIQHQDWLKGKEFKCKVNNVDLPAPITRTISKAIGQSREPQVYTLPPPAEELSRSKVTVTCLVIGFYPPDIHVEWKSNGQPEPEGNYRTTPPQQDVDGTFFLYSKLAVDKARWDHGETFECAVMHEALHNHYTQKSISKTQGK
**A:** 3.3
